Can you tell me soluble fraction (log2) for the items I'm about to list?
# EXPERIMENT DESCRIPTION: soluble fraction after stress (log2 fold change); higher = more stays soluble; pooled small domains, quantitative proteomics
# COND: stress: 50 degC

Ask: Using the record for HMQIAEAESLGQRLLQQSINNIVGRDEAITEERLNRVLSQYSLTGRDELMAQIGLGNRNSSLVAKAMYDI , state its measured soluble fraction (log2).
Reply: 0.0632

Ask: Using the record for HMNRYPIQTEVHAFNDDIIKEAINFEMSRGGQIFFVNNRIPQLYELENTIHRLVPDARVVIGHGQMP , state its measured soluble fraction (log2).
Reply: -0.188

Ask: Using the record for HMTSMNNTEELIDMANKIIDNNPNMVLKYKEGRNVLDFFIGQVMKETKGRANPSATSKIFKDLLEK , state its measured soluble fraction (log2).
Reply: 0.169

Ask: Using the record for HMPVRIYEISKKLGLENKEVLATAKSLGIAAAKVPSSSLDKITAEYLEEEILKSHPEVAARLK , state its measured soluble fraction (log2).
Reply: 0.329

Ask: Using the record for HMTIENTDTFLETLWEQVQRASVDENGIITSRVLIWDEGTKLDEILSWFDKRHSLGALYLQFG , state its measured soluble fraction (log2).
Reply: -2.47

Provide reported soluble fraction (log2) for each item, in the same order as listed.
1. HMKTPIEFGSVYNDPVRYVIGMSIKSAESINQAIYDMMKIFGDENNMNKFDSLPDEQAVLDMVNSF
2. HMPNQLLELVEMEIRDLLNEYEFPGDDTPIIQGSALKALEDPMGPWGDKIMDLMDAVDSYIPDPE
3. HMTANPHKPEPLQIDTSDITPGVTVIHKAFGNGTVVSVDNNRILIDFDGIEKKFPFPGAFLYGFLQK

Reply:
[0.0157, -0.581, 0.132]

Data provenance: the domain aggregation screens of Martell et al. (2025)
